assay: Blood stability assay; assay type: in vitro ADME; settings: whole blood; human blood, 37° C.
half-life at 1 μM overview
measure: half-life at 1 μM (min)

compound	value_observed
Cc1cc(Nc2cc(C(F)F)ccn2)nc(-c2ccc([C@](C)(O)[C@H]3CC[C@H](C(=O)OCCS(C)(=O)=O)CC3)nc2)c1 [Example 1-8]	22
COCCN(C)C(=O)OCOC(=O)[C@H]1CC[C@H]([C@@](C)(O)c2ccc(-c3cc(C)cc(Nc4cc(C(F)F)ccn4)n3)cn2)CC1 [Example 4-2]	16
Cc1cc(Nc2cc(C(F)F)ccn2)nc(-c2ccc([C@](C)(O)[C@H]3CC[C@H](C(=O)OC[N+]4(C)CCOCC4)CC3)nc2)c1.[I-] [Example 5-1]	15
Cc1cc(Nc2cc(C(F)F)ccn2)nc(-c2ccc([C@](C)(O)[C@H]3CC[C@H](C(=O)OCn4cc[n+](C)c4)CC3)nc2)c1 [Example 6-1]	24
CCOCCOCCOC(=O)OC(C)OC(=O)[C@H]1CC[C@H]([C@@](C)(O)c2ccc(-c3cc(C)cc(Nc4cc(C(F)F)ccn4)n3)cn2)CC1 (some centres unmarked) [Example 2-14]	199
COCCOCCOCC(=O)OCOC(=O)[C@H]1CC[C@H]([C@@](C)(O)c2ccc(-c3cc(C)cc(Nc4cc(C(F)F)ccn4)n3)cn2)CC1 [Example 3-29]	29
CCOCCOCCOC(=O)OCOC(=O)[C@H]1CC[C@H]([C@@](C)(O)c2ccc(-c3cc(C)cc(Nc4cc(C(F)F)ccn4)n3)cn2)CC1 [Example 2-2]	7
Cc1cc(Nc2cc(C(F)F)ccn2)nc(-c2ccc([C@](C)(O)[C@H]3CC[C@H](C(=O)OCOC(=O)CC(C)(C)O)CC3)nc2)c1 [Example 3-4]	14

---

assay: Solubility in biorelevant fasted state simulated intestinal fluid (FaSSIF); type: physicochemical; conditions: 25 °C, fassif, kinetic from dmso stock, Solubility
measure: solubility (µM)

compound	measure	value_observed
CC[N+](CC)(CCCC(C)O)COC(=O)[C@H]1CC[C@H]([C@@](C)(O)c2ccc(-c3cc(C)cc(Nc4cc(C(F)F)ccn4)n3)cn2)CC1 (stereo partly drawn) [Example 5-7]	solubility	200
CNCCCOC(=O)[C@H]1CC[C@H]([C@@](C)(O)c2ccc(-c3cc(C)cc(Nc4cc(C(F)F)ccn4)n3)cn2)CC1 [Example 1-22]	solubility	183
CC[N+](COC(=O)[C@H]1CC[C@H]([C@@](C)(O)c2ccc(-c3cc(C)cc(Nc4cc(C(F)F)ccn4)n3)cn2)CC1)(C(C)C)C(C)C [Example 5-3]	solubility	175
CCC[N+](CCC)(CCC)COC(=O)[C@H]1CC[C@H]([C@@](C)(O)c2ccc(-c3cc(C)cc(Nc4cc(C(F)F)ccn4)n3)cn2)CC1 [Example 5-9]	solubility	137
COCCOCCOCC(=O)OCOC(=O)[C@H]1CC[C@H]([C@@](C)(O)c2ccc(-c3cc(C)cc(Nc4cc(C(F)F)ccn4)n3)cn2)CC1 [Example 3-29]	solubility	41
CC(=O)C1CC[N+](C)(COC(=O)[C@H]2CC[C@H]([C@@](C)(O)c3ccc(-c4cc(C)cc(Nc5cc(C(F)F)ccn5)n4)cn3)CC2)CC1 (stereo partly drawn) [Example 5-17]	solubility	45
Cc1cc(Nc2cc(C(F)F)ccn2)nc(-c2ccc([C@](C)(O)[C@H]3CC[C@H](C(=O)OC[N+]4(C)CCC(O)CC4)CC3)nc2)c1 (stereo partly drawn) [Example 5-27]	solubility	164
Cc1cc(Nc2cc(C(F)F)ccn2)nc(-c2ccc([C@](C)(O)[C@H]3CC[C@H](C(=O)OC[N+](C)(C)Cc4ccccc4)CC3)nc2)c1 [Example 5-20]	solubility	86
Cc1cc(Nc2cc(C(F)F)ccn2)nc(-c2ccc([C@](C)(O)[C@H]3CC[C@H](C(=O)O[C@H]4CC[C@@H](N)CC4)CC3)nc2)c1 [Example 1-2]	solubility	114
Cc1cc(Nc2cc(C(F)F)ccn2)nc(-c2ccc([C@](C)(O)[C@H]3CC[C@H](C(=O)OCOC(=O)C4CCNCC4)CC3)nc2)c1 [Example 3-1]	solubility	147
Cc1cc(Nc2cc(C(F)F)ccn2)nc(-c2ccc([C@](C)(O)[C@H]3CC[C@H](C(=O)OCCC[S+](C)[O-])CC3)nc2)c1 (stereo partly drawn) [Example 7-4]	solubility	141
Cc1cc(Nc2cc(C(F)F)ccn2)nc(-c2ccc([C@](C)(O)[C@H]3CC[C@H](C(=O)OCOC(=O)OCC[S+](C)[O-])CC3)nc2)c1 (single isomer, unassigned) [Example 7-6]	solubility	156

---

Assay: Conversion of prodrug to parent in intestine homogenate
Assay type: in vitro ADME
Conditions: prodrug 1 μM, intestine S9 1 mg protein/mL, 37° C., pH 7.4, 2 h
Description: Conversion of Prodrug to Parent in Intestine Homogenate: The likely stability of prodrugs in the intestine can be estimated by incubating a prodrug with intestine homogenate. […] The supernatants were analyzed by LC-MS/MS for prodrug disappearance and appearance of active drug. The half-life of the prodrug was calculated from the % prodrug remaining at different time points calculated from on the peak area ratio relative to t=0. […]
measure: Prodrug concentration at 2 h (µM)

> print(dat)
                                   molecule                       measure  value.observed
1  COCCN(C)C(=O)OC(C)OC(=O)[C@H]1CC[C@H]([C@@](C)(O)c2ccc(-c3cc(C)cc(Nc4cc(C(F)F)ccn4)n3)cn2)CC1 (mixture of isomers)  Prodrug concentration at 2 h           0.539
2  CCOCCOCCOC(=O)OC(OC(=O)[C@H]1CC[C@H]([C@@](C)(O)c2ccc(-c3cc(C)cc(Nc4cc(C(F)F)ccn4)n3)cn2)CC1)C(C)C (stereo partly drawn)  Prodrug concentration at 2 h           0.371
3  Cc1cc(Nc2cc(C(F)F)ccn2)nc(-c2ccc([C@](C)(O)[C@H]3CC[C@H](C(=O)OCOC(=O)OCCCS(C)(=O)=O)CC3)nc2)c1  Prodrug concentration at 2 h           0.092

---

target: recombinant human GST-Syk (Homo sapiens, UniProt P43405); construct: purchased Carna Biosciences 08-176; assay: Homogeneous Time-Resolved Fluorescence (HTRF) assay for the recombinant human Syk enzyme; format: biochemical; conditions: recombinant human GST-Syk 5 pM, ATP 25 μM, read-out: IC50
measure: IC50 (nM)

> print(dat)
                                   compound  value.observed
1  Cc1cc(Nc2cc(C(F)F)ccn2)nc(-c2ccc([C@](C)(O)[C@H]3CC[C@H](C(=O)OCC[N+](C)(C)C)CC3)nc2)c1             1.7
2  Cc1cc(Nc2cc(C(F)F)ccn2)nc(-c2ccc([C@](C)(O)[C@H]3CC[C@H](C(=O)OC[C@H]4COC(C)(C)O4)CC3)nc2)c1            27.6
3  CSCCOC(=O)[C@H]1CC[C@H]([C@@](C)(O)c2ccc(-c3cc(C)cc(Nc4cc(C(F)F)ccn4)n3)cn2)CC1            18.2
4  Cc1cc(Nc2cc(C(F)F)ccn2)nc(-c2ccc([C@](C)(O)[C@H]3CC[C@H](C(=O)OCCC(C)(C)O)CC3)nc2)c1              10
5  Cc1cc(Nc2cc(C(F)F)ccn2)nc(-c2ccc([C@](C)(O)[C@H]3CC[C@H](C(=O)OC4CC5CCC(C4)N5)CC3)nc2)c1 (stereo partly drawn)             2.7
6  Cc1cc(Nc2cc(C(F)F)ccn2)nc(-c2ccc([C@](C)(O)[C@H]3CC[C@H](C(=O)OCCCN(C)C)CC3)nc2)c1             4.4

---

molecular target: recombinant human GST-Syk (Homo sapiens); construct: purchased Carna Biosciences 08-176; experiment: Homogeneous Time-Resolved Fluorescence (HTRF) assay for the recombinant human Syk enzyme; type: biochemical; conditions: recombinant human GST-Syk 5 pM, ATP 25 μM, read-out: IC50
IC50 overview
measure: IC50 (nM)

molecule	measure	value_comparator	value_observed
Cc1cc(Nc2cc(C(F)F)ccn2)nc(-c2ccc([C@](C)(O)[C@H]3CC[C@H](C(=O)OCC[S@@+](C)[O-])CC3)nc2)c1 (single isomer, unassigned)	IC50	=	4.2
Cc1cc(Nc2cc(C(F)F)ccn2)nc(-c2ccc([C@](C)(O)[C@H]3CC[C@H](C(=O)OCCS(C)(=O)=O)CC3)nc2)c1	IC50	=	4
Cc1cc(Nc2cc(C(F)F)ccn2)nc(-c2ccc([C@](C)(O)[C@H]3CC[C@H](C(=O)OCOC(=O)C(C)(C)O)CC3)nc2)c1	IC50	=	2.3
Cc1cc(Nc2cc(C(F)F)ccn2)nc(-c2ccc([C@](C)(O)[C@H]3CC[C@H](C(=O)OCOC(=O)OCCCCCCN(C)C)CC3)nc2)c1	IC50	=	78
Cc1cc(Nc2cc(C(F)F)ccn2)nc(-c2ccc([C@](C)(O)[C@H]3CC[C@H](C(=O)OCOC(=O)c4cnn(C)c4)CC3)nc2)c1	IC50	=	8.3
Cc1cc(Nc2cc(C(F)F)ccn2)nc(-c2ccc([C@](C)(O)[C@H]3CC[C@H](C(=O)OC[N+]4(C)CCOCC4)CC3)nc2)c1.[I-]	IC50	=	3.6
CN[C@H]1CC[C@H](OC(=O)[C@H]2CC[C@H]([C@@](C)(O)c3ccc(-c4cc(C)cc(Nc5cc(C(F)F)ccn5)n4)cn3)CC2)CC1	IC50	=	3.5
CCN(CC)C(=O)N1CC[N+](C)(COC(=O)[C@H]2CC[C@H]([C@@](C)(O)c3ccc(-c4cc(C)cc(Nc5cc(C(F)F)ccn5)n4)cn3)CC2)CC1	IC50	<	0.5
Cc1cc(Nc2cc(C(F)F)ccn2)nc(-c2ccc([C@](C)(O)[C@H]3CC[C@H](C(=O)Oc4ccc(C#N)cc4)CC3)nc2)c1	IC50	=	7.3
Cc1cc(Nc2cc(C(F)F)ccn2)nc(-c2ccc([C@](C)(O)[C@H]3CC[C@H](C(=O)OCCC(=O)N(C)C)CC3)nc2)c1	IC50	=	1.8
CCOCCOCCOC(=O)OC(C)OC(=O)[C@H]1CC[C@H]([C@@](C)(O)c2ccc(-c3cc(C)cc(Nc4cc(C(F)F)ccn4)n3)cn2)CC1 (stereo partly drawn) [Example 2-14]	IC50	=	30.4
CC[N+](CC)(CCCC(C)O)COC(=O)[C@H]1CC[C@H]([C@@](C)(O)c2ccc(-c3cc(C)cc(Nc4cc(C(F)F)ccn4)n3)cn2)CC1 (stereo partly drawn)	IC50	=	1.3
